Source of measurements: paper PMC8909594

Experimental System: solubilized cytochrome c oxidase (CcO) from bovine heart mitochondria (Bos taurus, UniProt P00396+P68530)
Construct: Cytochrome c oxidase (CcO) was purified from heart mitochondria of Bos taurus; from tissue; host or cells: bovine heart mitochondria
Method Notes: Oxidase activity of solubilized CcO, oxygen consumption (Clark-type electrode)
Type: biochemical
Condition Description: solubilized enzyme, Figure 1C,E; read-out: Ki
Result Type: Ki

Notebook: `N[C@@H](Cc1cc(I)c(Oc2cc(I)c(O)c(I)c2)c(I)c1)C(=O)O` , Ki read as ~100 µM

* * *

Experimental System: solubilized cytochrome c oxidase (CcO) from bovine heart mitochondria (Bos taurus, UniProt P00396+P68530)
Construct: Cytochrome c oxidase (CcO) was purified from heart mitochondria of Bos taurus; from tissue; host or cells: bovine heart mitochondria
Method Notes: Oxidase activity of solubilized CcO, oxygen consumption (Clark-type electrode)
Assay type: biochemical
Condition Description: from competition with T4 (T4=0); read-out: Kc, dissociation constant of the DM-CcO complex
pKd: −log10 of the molar value.
Result Type: pKd

Notebook: CCCCCCCCCCCCO[C@@H]1O[C@H](CO)[C@@H](O[C@H]2O[C@H](CO)[C@@H](O)[C@H](O)[C@H]2O)[C@H](O)[C@H]1O [DM, dodecyl-maltoside] , pKd read as ~2.96

* * *

Experimental System: CcO in SMP obtained from bovine heart mitochondria (Bos taurus, UniProt P00396+P68530)
Construct: Then, CcO in the native mitochondrial membrane was investigated
Method Notes: CcO oxidase activity in bovine heart submitochondrial particles (SMP)
Condition Description: 20 nM CcO
Result Type: pKi
Here pKi is given on a logarithmic scale as minus log10 of the concentration in mol/L.

Notebook: `N[C@@H](Cc1cc(I)c(Oc2cc(I)c(O)c(I)c2)c(I)c1)C(=O)O` , pKi read as 2.66

* * *

Experimental System: CcO incorporated into azolectin vesicles (proteoliposomes) (Bos taurus, UniProt P00396+P68530)
Method Notes: Oxidase activity of CcO in proteoliposomes, oxygen consumption
Result Type: pKi
Here pKi is given on a logarithmic scale as minus log10 of the concentration in mol/L.

Notebook: `N[C@@H](Cc1cc(I)c(Oc2cc(I)c(O)c(I)c2)c(I)c1)C(=O)O` , pKi read as 3.51
